- protocol-text: Permeability of the compound at pH 5.5 incubated for 4 hrs by PAMPA based SpectraMax UV-plate reader analysis
- Type: ADME
- reported-conditions: read-out: permeability
measured-property: Papp at 4 h (×10⁻⁶ cm/s)

>>> recorded_result("CO[C@@H]1[C@@H](n2cc(-c3ccc(Br)c(F)c3F)nn2)[C@@H](O)[C@@H](CO)O[C@H]1C(=O)N(C)c1ccc2ncsc2c1")
27.9

(I) Cc1nc([C@@H]2O[C@H](CO)[C@H](O)[C@H](n3cc(-c4ccc(Br)c(F)c4F)nn3)[C@H]2O)n(-c2ccc3ncsc3c2)n1
(II) Cc1nc([C@@H]2O[C@H](CO)[C@H](O)[C@H](n3cc(-c4cc(F)c(Cl)c(F)c4)nn3)[C@H]2O)n(-c2ccc3ncsc3c2)n1
Incoming: Larger number for Papp at 4 h: I , or II ? Give the label under which the chosen entry appears.
Outgoing: I
